Recorded values, source paper PMC4890880.

Target: QuantiLum Recombinant Luciferase (Photinus pyralis)
Sequence (P08659 whole entry): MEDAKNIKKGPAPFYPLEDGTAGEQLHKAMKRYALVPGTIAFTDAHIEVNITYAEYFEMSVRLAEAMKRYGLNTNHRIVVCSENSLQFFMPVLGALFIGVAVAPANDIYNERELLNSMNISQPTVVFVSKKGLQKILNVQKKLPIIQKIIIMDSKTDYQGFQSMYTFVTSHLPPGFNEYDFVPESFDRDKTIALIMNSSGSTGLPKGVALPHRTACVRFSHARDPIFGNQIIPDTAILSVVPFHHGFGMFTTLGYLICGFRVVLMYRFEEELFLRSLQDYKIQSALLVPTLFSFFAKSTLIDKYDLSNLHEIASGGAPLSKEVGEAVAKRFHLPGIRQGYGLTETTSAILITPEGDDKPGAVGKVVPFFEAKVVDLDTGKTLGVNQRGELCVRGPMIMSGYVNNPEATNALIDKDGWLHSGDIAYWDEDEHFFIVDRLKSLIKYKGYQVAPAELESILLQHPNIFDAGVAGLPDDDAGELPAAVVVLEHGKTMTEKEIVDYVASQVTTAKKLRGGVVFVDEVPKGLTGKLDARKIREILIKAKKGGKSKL
Test: Bioluminescence quantification of compound luciferase inhibition
Parameter: IC50. Scope: all listed entries.
observed.property: IC50

>>> result("COc1ccc(C2=C(c3ccc(OC)cc3)C3(c4ccccc4)C(=O)C2(c2ccccc2)C2C(=O)N(c4ccc(C)cc4)C(=O)C23)cc1 (centres unmarked)")
"> 20 µM"
>>> result("FC(F)(F)c1ccc(Nc2nnnc3ccccc23)cc1")
"> 50 µM"
>>> result("COc1ccc2c(c1OC)C(=O)N1c3ccccc3N=C(c3ccc(C)cc3)CC21 (centres unmarked)")
"> 50 µM"
>>> result("Cc1ccc(N2C(=O)C3C(C2=O)C2(c4ccccc4)C(=O)C3(c3ccccc3)C(c3ccccc3)=C2c2ccccc2)cc1 (centres unmarked)")
"> 50 µM"
>>> result("CCOc1cc(Cl)c(C(C)NC(=O)c2ccccc2)cc1OCC (centres unmarked)")
"> 50 µM"
>>> result("COc1ccccc1CNC(=O)CCn1c(=O)[nH]c2ccccc2c1=O")
"> 20 µM"
>>> result("O=C(NCc1ccco1)C1CCN(S(=O)(=O)c2ccc(Cl)cc2)CC1")
"> 50 µM"
>>> result("O=C(Nc1ccc(-c2nc3ccccc3[nH]2)cc1)c1ccc(Cl)c(Cl)c1")
"> 20 µM"
>>> result("CCCCc1c(C)nc2c(OC)cccc2c1O")
"> 20 µM"
>>> result("CCOC(=O)c1cnc2ccc(CC)cc2c1O")
"> 20 µM"
>>> result("CC(=O)Nc1nnc(SCc2c(C)cc(C(C)(C)C)cc2C)s1")
"> 50 µM"
>>> result("Cc1ccc(Cn2c(N3CCC(C(=O)NCc4cccs4)CC3)nc3ccccc32)cc1")
"> 50 µM"
>>> result("O=C(NC1CCCC1)c1ccc(N2CCC(NCc3cccc(C(F)(F)F)c3)CC2)cc1")
"> 50 µM"
>>> result("Cc1sc(NC(=O)c2ccccc2)c(C(c2cccs2)N2CCN(c3ccccc3)CC2)c1C (centres unmarked)")
"> 50 µM"
>>> result("Cc1ccc(-c2cc3c(SCC(=O)Nc4cc(C(F)(F)F)ccc4Cl)nccn3n2)cc1")
"> 50 µM"
>>> result("O=C(NC1CCN(Cc2ccccc2)CC1)c1cc(-c2cccnc2)nc2ccc(Cl)cc12")
"> 50 µM"
>>> result("O=[N+]([O-])c1ccc(C=NNc2nc3ccccc3[nH]2)cc1")
"> 20 µM"

* * *

Listing: IC50 of selected molecules
Molecular target: QuantiLum Recombinant Luciferase (Photinus pyralis)
Assay: Bioluminescence quantification of compound luciferase inhibition
observed.property: IC50

>>> result("CCOc1ccccc1CN1CCc2nc3cc(C(C)(C)C)nn3c(O)c2C1 [MMV396595]")
"> 50 µM"
>>> result("CCOc1cc2c(cc1OCC)C(c1cc(OC)c(O)cc1Cl)NCC2 (stereo not drawn) [MMV008956]")
"> 20 µM"
>>> result("COc1cccc(C(=O)Nc2ccc(-c3nc4ccccc4[nH]3)cc2)c1 [MMV019762]")
"> 20 µM"
>>> result("Cc1ccc(N2C3c4ccccc4N(S(=O)(=O)c4ccc(C)cc4)C2c2ccccc2N3S(=O)(=O)c2ccc(C)cc2)cc1 [MMV007160]")
"> 20 µM"
>>> result("Oc1c2c(nc3ccccc13)CCCC2 [MMV665843]")
"> 50 µM"
>>> result("COc1ccc(C)c2sc(N(Cc3cccnc3)C(=O)c3ccc(C#N)cc3)nc12 [MMV001241]")
"> 50 µM"
>>> result("CCc1ccc(Nc2cc(C)nc3nc(C)nn23)cc1 [MMV007374]")
"> 50 µM"
>>> result("COc1cc(CNCCc2ccc(Cl)cc2)cc(OC)c1O [MMV128432]")
"> 50 µM"
>>> result("CCOC(=O)c1cnc2c(C)cccc2c1Nc1ccc(C(C)=O)cc1 [MMV006250]")
"> 50 µM"

* * *

System: Plasmodium berghei (Pb-Luc) exoerythrocytic-stage parasites
Conditions: first series; concentration 0.00152416; fraction of control
observed.property: normalized signal at concentration 0.00152416

>>> numeric_result("CC(C)[C@H]1COCn2nncc2CCCC(=O)N1")
0.73
>>> numeric_result("C[C@@H]1CCCCO[C@@H](CN(C)S(=O)(=O)c2ccc(F)cc2)[C@@H](C)CN([C@H](C)CO)C(=O)c2cc(N(C)C)ccc2O1")
0.85
>>> numeric_result("COc1ccc(S(=O)(=O)N(C)C[C@H]2Oc3ccc(NC(=O)Cc4cn(C)c5ccccc45)cc3C(=O)N([C@H](C)CO)C[C@@H]2C)cc1")
0.848
>>> numeric_result("CN(C)c1ccc2c(c1)[C@@H]1C[C@@H](CC(=O)NC3CCCCC3)O[C@@H](CO)[C@@H]1O2")
1.11
>>> numeric_result("C[C@H](CO)N1C[C@H](C)[C@@H](CN(C)C(=O)Nc2ccc(C(F)(F)F)cc2)Oc2c(NC(=O)c3ccc(-c4nccs4)cc3)cccc2C1=O")
0.8471

* * *

Test system: Plasmodium berghei (Pb-Luc) exoerythrocytic-stage parasites
Experiment: microbe, parasite or virus in culture
Conditions: read-out: Inhibition% @ 50 uM rep2
Record Fulfilled whenever inhibition at 50 µM is at 90% or higher; record Not fulfilled when lower.

>>> category("CCOc1ccc2nc(C)cc(Nc3ccc(Br)cc3)c2c1")
"Fulfilled"
>>> category("CCCC(c1nnnn1C1CCCCC1)N1CCN(C(=O)c2ccco2)CC1 (stereo not drawn)")
"Not fulfilled"
>>> category("O=C(CSc1nccn2nc(-c3ccccc3)cc12)Nc1cc(C(F)(F)F)ccc1Cl")
"Not fulfilled"
>>> category("O=C(Nc1ccc(CN2CCOCC2)cc1)c1ccc(-c2ccc(Br)cc2)o1")
"Fulfilled"
>>> category("COc1ccc(N2CCN(C(CNC(=O)CC(C)(C)C)c3ccc4c(c3)OCO4)CC2)cc1 (stereo not drawn)")
"Not fulfilled"
>>> category("CN(N=O)C1=C(NC2CCCCC2)C(=O)c2ccccc2C1=O")
"Fulfilled"
>>> category("Clc1ccc2c(N3CCCC3)ccnc2c1")
"Fulfilled"
>>> category("Cc1cc(N2CCCC2)nc(Nc2ccc(NC(=O)CCc3ccccc3)cc2)n1")
"Fulfilled"
>>> category("CCOc1cc2c(cc1OCC)C(c1cc(Cl)c(O)c(OCC)c1)NCC2 (stereo not drawn)")
"Not fulfilled"

* * *

Tested on: HepG2-A16-CD81EGFP cells
Conditions: human, 50 uM
observed.property: HepG2 Tox% @ 50 uM rep2

>>> result("FC(F)(F)c1cccc(CNC2CCN(CCc3ccccc3)CC2)c1")
"99%"
>>> result("CC1(c2ccccc2)Nc2ccccc2-c2nc3ccccc3n21 (stereo not shown)")
"102%"
>>> result("COc1ccc(-c2nonc2NC(=O)c2cccc(C)c2)cc1OC")
"-3%"
>>> result("OC(CNC1CCCCC1)Cn1c2ccccc2c2ccccc21 (stereo not shown)")
"101%"
>>> result("Cc1cc(NC(=O)c2cccc(C(F)(F)F)c2)n(-c2nc(-c3ccc4c(c3)OCO4)cs2)n1")
"-14%"
>>> result("CCC(O)c1ccc(Br)cc1NC(=O)c1cccc(Cl)c1 (stereo not shown)")
"101%"
>>> result("COc1ccc(Nc2nc(NCc3ccccc3)c3ccccc3n2)cc1")
"100%"
>>> result("CCN1CCN(c2cc(C)c3cc(NC(=O)c4ccc(OC)c(OC)c4)ccc3n2)CC1")
"100%"
>>> result("COc1ccc(CNC2CCN(c3ccc(NC(=O)c4cccc(Cl)c4)cc3)CC2)cc1OC")
"99%"
>>> result("COc1ccc2nc(C)cc(Nc3ccc(Cl)cc3)c2c1")
"99%"
>>> result("OC(CNCC1CCCO1)Cn1c2ccc(Cl)cc2c2cc(Cl)ccc21 (stereo not shown)")
"99%"
>>> result("COc1ccc(C(=O)Nc2ccc(Cl)cc2C(=O)Nc2ccncc2)cc1")
"-10%"
>>> result("N=c1n(CCN2CCCCC2)c2ccccc2n1CC(O)c1cccc(Br)c1 (stereo not shown)")
"102%"
>>> result("CCN1CCN(Cc2ccc(NC(=O)c3cc4ccc5cccnc5c4[nH]3)cc2)CC1")
"100%"
>>> result("O=C(NCC1Cc2cccc(-c3ccncc3)c2O1)c1csc2c1CCCC2 (stereo not shown)")
"98%"
>>> result("COc1ccc(C(=O)Nc2ccc3nc(N4CCCCC4)cc(C)c3c2)cc1OC")
"101%"
>>> result("O=C(Nc1cccc(-c2nc3ccccc3[nH]2)c1)c1cccc(NC(=O)c2ccco2)c1")
"99%"
>>> result("CCOc1cccc2sc(N(Cc3cccnc3)C(=O)C3CCCCC3)nc12")
"99%"
>>> result("COc1cccc(Nc2nc(NCCO)c3ccccc3n2)c1")
"101%"
>>> result("CCC(C)NCC(O)(c1ccc(Cl)cc1)c1ccc(Cl)cc1 (stereo not shown)")
"102%"
>>> result("CC(C)CNC(=O)c1c(N)n(CCc2ccccc2F)c2nc3ccccc3nc12")
"99%"
>>> result("CCOC(=O)C1CCN(C(=O)CN2C(=O)c3ccccc3C2c2c[nH]c3ccccc23)CC1 (stereo not shown)")
"-12%"
>>> result("COCCNC(=O)c1ccc(OC2CCN(Cc3ccc(F)c(F)c3)CC2)c(Cl)c1")
"97%"
>>> result("CCn1c(CN2CCN(Cc3ccccc3)CC2)nc2cc(NC(=O)c3cccs3)ccc21")
"99%"
>>> result("CCc1ccc(Nc2cc(C)c3ccc(O)cc3n2)cc1")
"100%"
